The origin of these recorded values is patent US10752588B2.

target: human D2R/β-arrestin (Homo sapiens (Human), UniProt P14416); assay: cell-based; conditions: β-arrestin Antagonist, CHO-K1 cell line expressing human D2R/β-arrestin; quinpirole used as agonist
Sequence (P14416 whole entry): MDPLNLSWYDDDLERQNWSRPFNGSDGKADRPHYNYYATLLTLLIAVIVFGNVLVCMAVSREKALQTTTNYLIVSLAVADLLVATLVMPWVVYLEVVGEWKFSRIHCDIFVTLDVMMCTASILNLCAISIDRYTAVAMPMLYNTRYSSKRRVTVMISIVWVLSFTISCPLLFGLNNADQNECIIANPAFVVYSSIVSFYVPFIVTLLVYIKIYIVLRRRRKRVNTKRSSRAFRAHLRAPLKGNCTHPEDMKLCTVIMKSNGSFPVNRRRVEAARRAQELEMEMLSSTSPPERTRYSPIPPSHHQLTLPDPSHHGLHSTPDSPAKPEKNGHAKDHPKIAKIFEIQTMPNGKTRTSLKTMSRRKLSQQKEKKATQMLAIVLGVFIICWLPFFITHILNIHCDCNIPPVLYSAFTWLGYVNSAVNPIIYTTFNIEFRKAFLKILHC
In this section, each of the molecules is paired with its reported IC50.
readoutType: IC50

[[record]]
molecule = "Clc1ccc(C(c2ccccn2)N2CCC3(CCN(CCOc4ccccc4)CC3)C2)cc1 (single isomer, unassigned) [Compound 105a]"
measuredvalue = "100 to 1000 nM"

[[record]]
molecule = "CN(CC1CCN(CCOc2ccccc2)CC1)C(c1ccc(Cl)cc1)c1ccccn1 (stereo not shown) [Compound 79]"
measuredvalue = "100 to 1000 nM"

[[record]]
molecule = "CC1(C(=O)NC(c2ccc(F)cc2)c2ccccn2)CCN(CCOc2ccccc2C(F)(F)F)CC1 (stereo not shown)"
measuredvalue = "100 to 1000 nM"

[[record]]
molecule = "COc1ccc(OCCN2CCC(C(=O)NC(c3ccc(Cl)cc3)c3ccccn3)CC2)cc1 (stereo not shown)"
measuredvalue = "1000 to 10000 nM"


---

experiment: Plasma stability, human; format: in vitro ADME
In this section, each of the molecules is paired with its reported Plasma Stability: % remaining after 5 hours.
readoutType: Plasma Stability: % remaining after 5 hours (%)

[[record]]
molecule = "O=C(NC(c1ccc(Cl)cc1)c1ccccn1)C1CCN(CCOc2ccc(C(F)(F)F)cc2)CC1 (centres unmarked) [Compound 8]"
measuredvalue = 100

[[record]]
molecule = "O=C(NC(c1ccc(Cl)cc1)c1ccccn1)C1CCN(CCn2ccc(=O)cc2)CC1 (centres unmarked) [Compound 11]"
measuredvalue = 98.2

[[record]]
molecule = "O=C(NC(c1ccc(Cl)cc1)c1ccccn1)C1CCN(CCOc2cc(F)ccc2F)CC1 (centres unmarked) [Compound 14]"
measuredvalue = 96.7

[[record]]
molecule = "O=C(NC(c1ccccc1)c1ccc(Cl)cc1)C1CCN(CCOc2ccccc2)CC1 (centres unmarked) [Compound 39]"
measuredvalue = 100

[[record]]
molecule = "O=C(NC(c1ccc(F)cc1)c1ccc(Cl)cc1)C1CCN(CCOc2ccccc2)CC1 (centres unmarked) [Compound 42]"
measuredvalue = 98

[[record]]
molecule = "O=C(NC(c1ccc(Cl)cc1)c1ccccn1)C1CCN(CCOc2cccc(C(F)(F)F)c2)CC1 (centres unmarked) [Compound 7]"
measuredvalue = 91.5

[[record]]
molecule = "O=C(NC(c1ccc(F)cc1)c1ccccn1)C1CCN(CCOc2ccccc2Cl)CC1 (centres unmarked) [Compound 53]"
measuredvalue = 100

[[record]]
molecule = "O=C(NC(c1ccc(Cl)cc1)c1ccccn1)C1CCN(CCOc2ccccc2)CC1 (centres unmarked) [Compound 63]"
measuredvalue = 94.5


---

target: human D2R/β-arrestin (Homo sapiens (Human)); experiment: cell-based; conditions: β-arrestin Antagonist, CHO-K1 cell line expressing human D2R/β-arrestin; quinpirole used as agonist
pIC50: −log10 of the molar value.
readoutType: pIC50

[[record]]
compound = "COc1cccc(C(NC(=O)C2CCN(CCOc3ccccc3C(F)(F)F)CC2)c2ccccn2)c1 (stereo not drawn)"
measuredvalue = "6.00 to 7.00"

[[record]]
compound = "O=C(NC(c1ccc(Cl)cc1)c1ccccn1)C1CCN(CCOc2ccccn2)CC1 (stereo not drawn)"
measuredvalue = "5.00 to 6.00"

[[record]]
compound = "CN(CC1CCN(CCOc2ccccc2)CC1)C(c1ccc(F)cc1)c1ccccn1 (single isomer, unassigned) [Compound 74a]"
measuredvalue = "5.00 to 6.00"

[[record]]
compound = "COc1cccc(C(NC(=O)C2CCN(CCOc3ccc4ncsc4c3)CC2)c2ccccn2)c1 (stereo not drawn)"
measuredvalue = "4.52 to 5.00"

[[record]]
compound = "CC1(C(=O)NC(c2ccc(Cl)cc2)c2ccccn2)CCN(CCOc2ccccc2)CC1 (single isomer, unassigned) [Compound 144a]"
measuredvalue = "> 7.00"

[[record]]
compound = "O=C(NC(c1ccc(Cl)cc1)c1ccncc1F)C1CCN(CCOc2ccccc2F)CC1 (single isomer, unassigned) [Compound 91a]"
measuredvalue = "5.00 to 6.00"

[[record]]
compound = "FC(F)(F)c1ccccc1OCCN1CCC2(CC1)CCN(C(c1ccc(Cl)cc1)c1ccccn1)C2 (stereo not drawn)"
measuredvalue = "6.00 to 7.00"

[[record]]
compound = "O=C(NC(c1ccc(Cl)cc1)c1ccccn1)C1CCN(CCOc2ccccc2F)CC1 (stereo not drawn)"
measuredvalue = "6.00 to 7.00"

[[record]]
compound = "Fc1ccccc1OCCN1CCC(CNC(c2ccc(Cl)cc2)c2ccccn2)CC1 (stereo not drawn)"
measuredvalue = "6.00 to 7.00"

[[record]]
compound = "O=C(NC(c1ccc(Cl)cc1)c1ccc(F)cn1)C1CCN(CCOc2ccccc2F)CC1 (single isomer, unassigned) [Compound 92b]"
measuredvalue = "5.00 to 6.00"

[[record]]
compound = "COc1cccc(C(NC(=O)C2CCN(CCOc3ccccc3)CC2)c2ccccc2)c1 (stereo not drawn)"
measuredvalue = "5.00 to 6.00"

[[record]]
compound = "Fc1ccccc1OCCN1CCC(CN(CC(F)(F)F)C(c2ccc(Cl)cc2)c2ccccn2)CC1 (single isomer, unassigned) [Compound 136b]"
measuredvalue = "> 7.00"

[[record]]
compound = "COc1ccc(C(NC(=O)C2CCN(CCOc3ccccc3)CC2)c2ccc(Cl)cc2)cc1 (stereo not drawn)"
measuredvalue = "5.00 to 6.00"

[[record]]
compound = "COc1cccc(C(c2ccccn2)N(C)CC2CCN(CCOc3ccccc3)CC2)c1 (stereo not drawn) [Compound 76]"
measuredvalue = "5.00 to 6.00"

[[record]]
compound = "c1ccc(OCCN2CCC(CNC(c3ccc4c(c3)OCO4)c3ccccn3)CC2)cc1 (single isomer, unassigned) [Compound 102a]"
measuredvalue = "5.00 to 6.00"

